STUDY SYSTEM: BCL6 (Homo sapiens (Human), UniProt P41182)
ASSAY INFO: Immunofluorescence high content imaging of BCL6 degradation in T47D cells
Type: cell-based
SETUP CONDITIONS: T47D cells
MEASURE: Dmax

Example results:
CNC(=O)COc1cc2cc(Nc3nc(N4CCN(C(C)C5CCN(c6ccc7c(c6)C(=O)N(C6CCC(=O)NC6=O)C7=O)CC5)CC4)ncc3Cl)ccc2n(C)c1=O (centres unmarked) : 50 to 70%
CNC(=O)COc1cc2cc(Nc3nc(N4C[C@@H](C)N(CC5CCN(c6cccc7c6C(=O)N(C6CCC(=O)NC6=O)C7=O)CC5)[C@@H](C)C4)ncc3Cl)ccc2n(C(C)C)c1=O (some centres unmarked) : 50 to 70%
CNC(=O)COc1cc2cc(Nc3nc(N4C[C@@H](C)N(CC5CCN(c6ccc(C(=O)NC7CCC(=O)NC7=O)c(OC)c6)CC5)[C@@H](C)C4)ncc3Cl)ccc2n(C)c1=O (some centres unmarked) : 50 to 70%

For this compound ( CNC(=O)COc1cc2cc(Nc3nc(N4CCN(C(C)(C)C5CCN(c6cc(OC)cc(C(=O)NC7CCC(=O)NC7=O)c6F)CC5)CC4)ncc3Cl)ccc2n(C)c1=O (centres unmarked) ), measured Dmax is ≥ 70%

Entry under test: CCCN(C1CCN(c2ccc3c(c2)C(=O)N(C2CCC(=O)NC2=O)C3=O)CC1)C1CCN(c2ncc(Cl)c(Nc3ccc4c(c3)cc(OCC(=O)NC)c(=O)n4C)n2)CC1 (centres unmarked) . Its Dmax was 50 to 70%

---

// reported Dmax per item
STUDY SYSTEM: UniProt P41182
ASSAY INFO: Immunofluorescence high content imaging of BCL6 degradation in T47D cells
Type: cell-based
SETUP CONDITIONS: T47D cells

Dmax recorded for this molecule, CNC(=O)COc1cc2cc(Nc3nc(N4CCC(CN5CCC6(CC5)CN(c5ccc(C(=O)NC7CCC(=O)NC7=O)c(OC)c5)C6)CC4)ncc3Cl)ccc2n(C(C)C)c1=O (centres unmarked) , is 50 to 70%

CC[C@@H]1CN(c2ncc(Cl)c(Nc3ccc4c(c3)cc(OCC(=O)NC)c(=O)n4C(C)C)n2)C[C@@H](COc2ccc3c(c2)C(=O)N(C2CCC(=O)NC2=O)C3=O)O1 (some centres unmarked) has a reported Dmax of < 50%

get_value(item= CNC(=O)COc1cc2cc(Nc3nc(N4CCN(CC5CCN(c6ccc(C(=O)NC7CCC(=O)NC7=O)c(OC)c6)CC5)CC4)ncc3Cl)ccc2n(C(C)C)c1=O (centres unmarked) , readout=Dmax) returns 50 to 70%

GET /value?item= CNC(=O)COc1cc2cc(Nc3nc(N4CCC(O[C@H]5C[C@H](N6CCC(c7ccc8c(c7)C(=O)N(C7CCC(=O)NC7=O)C8=O)CC6)C5)CC4)ncc3Cl)ccc2n(C(C)C)c1=O (some centres unmarked) &field=Dmax returns 50 to 70%

Recorded result, CNC(=O)COc1cc2cc(Nc3nc(N4CCO[C@H](COc5ccc(C(=O)NC6CCC(=O)NC6=O)nc5)C4)ncc3Cl)ccc2n(C(C)C)c1=O (some centres unmarked) , Dmax: < 50%

---

Recorded Dmax, one value per entry.
STUDY SYSTEM: BCL6 (Homo sapiens (Human))
ASSAY INFO: Immunofluorescence high content imaging of BCL6 degradation in T47D cells
Type: cell-based
SETUP CONDITIONS: T47D

CNC(=O)COc1cc2cc(Nc3nc(N4CCN(CC(C)(C)N5CCN(c6ccc7c(c6)C(=O)N(C6CCC(=O)NC6=O)C7=O)CC5)CC4)ncc3Cl)ccc2n(C)c1=O (centres unmarked) [compound 280] : 50 to 70%
CNC(=O)COc1cc2cc(Nc3nc(N4CCC5(CC4)CC(OC4CCN(c6cccc(C(=O)NC7CCC(=O)NC7=O)c6F)CC4)C5)ncc3Cl)ccc2n(C(C)C)c1=O (centres unmarked) [compound 453] : ≥ 70%

The reported value for CNC(=O)COc1cc2cc(Nc3nc(N4CCN(C(C)(C)C5CCN(c6cccc(C(=O)NC7CCC(=O)NC7=O)c6F)CC5)CC4)ncc3Cl)ccc2n(C)c1=O (centres unmarked) [compound 291] in terms of Dmax is ≥ 70%

response.value for CNC(=O)COc1cc2cc(Nc3nc(N4CCC[C@H](COc5cccc6c5C(=O)N(C5CCC(=O)NC5=O)C6=O)C4)ncc3Cl)ccc2n(CC2COC2)c1=O (some centres unmarked) [compound 491] (field: Dmax) = ≥ 70%

Short answer for CNC(=O)COc1cc2cc(Nc3nc(N4CCN(CC5CCN(c6cccc(C(=O)NC7CCC(=O)NC7=O)c6F)CC5)CC4)ncc3Cl)ccc2n(C(C)C)c1=O (centres unmarked) [compound 296] : Dmax was ≥ 70%
